# System: IGROV1 ovarian
# assay.remarks: NCI-60 one-dose screen, 48 h
# reported.conditions: 10 µM unless noted
About 83,000 compounds went through this panel and 20% of them were active in at least one assay; those are over-represented in the sample as a whole. Activity calls are given as the source filed them. The calls were made as follows: active = growth percent below 10; inactive = the rest.
Outcome codes: active, inactive

1. CCOC(=O)c1cc(C(=O)c2cc(OC)c(OC)c(OC)c2)n2ncccc12 inactive
2. C1CN(SSN2CCOCC2)CCO1 inactive
3. CCOc1nc(-c2ccccc2)cc2c(O)c(C(=O)N/N=C/c3ccccc3)[nH]c(=O)c12 inactive
4. CC(C)c1ccc(C(=O)Nc2sc3c(c2C(N)=O)CCC(=O)C3)cc1 active
5. COc1ccc(-c2cc(-c3ccc(Cl)cc3)c(C#N)c(=O)n2Cc2ccc(C(=O)Nc3ccccc3N)cc2)cc1 inactive
6. COc1ccc(Cc2cnc(NC(=O)c3cc(C)oc3C)s2)cc1 inactive
7. N#Cc1c(-c2ccccc2)cc(-c2ccccc2)n(CCCC(=O)Nc2ccccc2N)c1=O inactive
8. Cc1ccccc1/C=C/C(=O)c1cccc(OCCCCOc2cccc(C(=O)/C=C/c3ccccc3C)c2)c1 inactive
9. O=C(/C=C/c1ccccc1)Nc1ncc(Cc2ccccc2Cl)s1 inactive
10. O=C(CN1CCOCC1)Nc1nc(-c2cc3ccccc3oc2=O)cs1 inactive

====

# System: RPMI-8226 leukemia
# assay.remarks: NCI-60 one-dose screen, 48 h (100 = growth as untreated, 0 = no growth, -100 = all killed)
# reported.conditions: 10 µM unless noted
About 83,000 compounds went through this panel and 20% of them were active in at least one assay; those are over-represented in the sample as a whole.
test.readout: growth (%)

compound	test.readout	unit.name	data.value
COc1ccc(/C=C/C(=O)c2ccc(Nc3ccnc4cc(Cl)ccc34)cc2)cc1	growth	%	-32
CCOC(=O)c1c2c(n3cccc(F)c13)C(=O)c1ncccc1C2=O	growth	%	37.5
CC1=C([Se]CC(OC(=O)CC[Se]c2ccccc2)C(=O)NC(C)(C)C)C(=O)c2ccccc2C1=O (stereo unspecified)	growth	%	14.8
Nc1ncnc2c1N=C(c1ccc(Br)cc1)CC(c1cccc(Nc3ccnc4cc(C(F)(F)F)ccc34)c1)N2 (stereo unspecified)	growth	%	12.7
CCOC(=O)c1cc(C(=O)c2cc(OC)c(OC)c(OC)c2)n2ncccc12	growth	%	19.3
CCn1c(SCC(=O)N/N=C(\C)c2ccc(Cl)cc2)nc2c1c(=O)n(C)c(=O)n2C	growth	%	103
Cn1cc(-c2csc(-c3c[nH]c4ccc(Br)cc34)n2)c2ccnc(Cl)c21	growth	%	51.4
CCCOC(=O)Nc1nc2ccc(SCC(C)C)cc2s1	growth	%	28.4
CCOC(=O)[C@@H]1CSC(CC)=C(C(=O)O)N1	growth	%	-32
N#CSc1c[nH]c2cccc(/C=C/C(=O)/C=C(/C=C/c3cccc4[nH]cc(SC#N)c34)OB(F)F)c12	growth	%	-6.08
O=C(/C=C(/C=C/c1ccc2[nH]ccc2c1)OB(F)F)/C=C/c1ccc2[nH]ccc2c1	growth	%	-31.2
Ic1ccc(OCCCCn2ccnc2)cc1	growth	%	73.5
Cc1[nH]c(=O)[nH]c(=O)c1Br	growth	%	111
O=C(NCCNc1nccc(Nc2ccc(S(=O)(=O)Nc3ccccn3)cc2)n1)c1cccc([N+](=O)[O-])c1	growth	%	96.1
C#CCOc1cccc(Nc2ncnc3ccc(NC(=O)C=C)cc23)c1	growth	%	35.7
O=S(=O)(NCCNc1nccc(-c2c(-c3ccc(F)c(O)c3)nc3occn23)n1)c1ccc(Cl)cc1	growth	%	85.3
N#Cc1c(-c2ccccc2)cc(-c2ccc(Nc3nc(Nc4ccc(Cl)cc4)nc(Nc4ccc(Cl)cc4)n3)cc2)nc1N	growth	%	-45.4
N#Cc1nc(-c2ccc(F)cc2)oc1S(=O)(=O)N1CCCCC1	growth	%	49.4
CCCCCCCCCc1ccc(OCCOCCOCCOCCOCCOCCOCCOCCOCCO)cc1	growth	%	-12.1
Cc1ccc(-c2nc(N3CCCNCC3)c3oc(-c4ccc(C)cc4)nc3n2)cc1	growth	%	-51
N#CC1=C(N)Oc2c(ccc3ccccc23)C1c1ccccc1 (stereo unspecified)	growth	%	8.06

====

# Test system: OVCAR-8 ovarian
# assay.remarks: NCI-60 one-dose screen, 48 h
# reported.conditions: 10 µM unless noted
Compounds without any hit were thinned out: in the full panel of roughly 83,000, 20% have a hit. Calls of active or inactive are those of the source. Rule for the calls: active = growth percent below 10; inactive = the rest.
Outcome codes: label 1 = active, label 0 = inactive

molecule	answer.label
C=C1C(=O)O[C@H]2[C@H]1CC/C(COC(=O)c1cc3ccccc3s1)=C\CC[C@@]1(C)O[C@@H]21	label 1
COc1ccc(-c2ccc(=O)oc2-c2cc(OC)c(OC)c(OC)c2)cc1O	label 0
Fc1ccc(CNc2c3ccccc3nc3ccccc23)c(F)c1	label 0
CCCCNC(=O)Oc1ccc(/C(=C(/C)Cc2ccc(OC)cc2)c2ccc(OCCN(CC)CC)cc2)cc1	label 0
Nc1nc2ccccc2c2c(=O)c3cccc(Cl)c3sc12	label 0
CCOC(=O)C(=O)C(C(=O)OCC)c1ccccc1 (stereo unspecified)	label 0

====

# Test system: MDA-MB-435 melanoma
# assay.remarks: NCI-60 one-dose screen, 48 h (100 = growth as untreated, 0 = no growth, -100 = all killed)
# reported.conditions: 10 µM unless noted
The panel holds about 83,000 compounds, 20% with a hit somewhere; the sample as a whole holds those more often.

compound	growth (%)
CCCCCOC(=O)c1c(C)[nH]c(/C=C2\N=C(c3ccc[nH]3)C=C2OC)c1C	-16.9
CCOC(=O)C(=O)C(C(=O)OCC)c1ccccc1 (configuration not stated)	101
COc1ccc(C2=Nc3c(N)nc(N)nc3NC(c3cccc(Nc4ccnc5cc(C(F)(F)F)ccc45)c3)C2)cc1 (configuration not stated)	10.1
COc1ccccc1NC(=O)N=Nc1c(O)[nH]c2ccccc12	91
Nc1ncnc2c1c(-c1cccc(Cl)c1)nn2CC(=O)N1CCOCC1	104
O=C(/C=C/c1cccs1)Nc1ncc(Cc2ccccc2F)s1	-64.4
COc1cc(-c2nccc3[nH]c(-c4ccc5cc[nH]c5c4)nc23)cc(OC)c1OC	5.17
CCCCCCCCCc1ccc(OCCOCCOCCOCCOCCOCCOCCOCCOCCO)cc1	7.48
O=C1c2c(c3c4ccccc4[nH]c3c3ccc4ccccc4c23)C(=O)N1CCN1CCOCC1	58.6
CCCCNC(=O)CC1=C(C)/C(=C/c2[nH]c(-c3ccc[nH]3)cc2OC)N=C1C	20.2
CCCCCC(/C=N\NC(=S)N/N=C/C(=C/c1ccccc1)CCCCC)=C\c1ccccc1	81.6
Nc1c(C(=O)Nc2ccncc2)sc2nc3c(cc12)C(O)CCC3 (configuration not stated)	101
CCCNC(=O)Nc1ccc2cc3ccc(NC(=O)NCCC)cc3nc2c1	77.4
N=C(N)c1ccc(-c2ccc(-c3ccccc3)o2)cc1	-91.2
COC1=CC(c2ccc[nH]2)=N/C1=C\c1[nH]c(C)c(C)c1CCC(=O)OCc1ccccc1	-39
CC1=NC2=Nn3c(c4cnn(-c5ccccc5)c4n/c3=N\N)NN2C(c2ccccc2)=C1	92.3
O=CN1N=C(c2cccc(Nc3ccnc4cc(Cl)ccc34)c2)CC1c1ccccc1 (configuration not stated)	-34.4
O=C(Nc1cccc2ccccc12)NC1CC1	113
CCN(C)S(=O)(=O)Nc1cccc(Nc2ncnc3cc(NC(=O)CCl)ccc23)c1Cl	-5.32
O=C(Nc1ccc(Oc2cccc(F)c2)c(Cl)c1)c1cccnc1	1.64
CCOC(=O)c1cc(C)n(-c2ccc(C(=O)O)cc2)c1C	107
COc1ccc(/C=C(\C#N)n2nnc3cc(F)c(F)cc32)cc1	-54
Cc1ccc(NC(=O)c2sc3nc(C)c(Br)c(C)c3c2N)cc1	81.8
CC1CCN(S(=O)(=O)c2ccc(S(=O)(=O)N3CCCC(c4nc5c(nnn5Cc5cccc(Cl)c5)c(=O)[nH]4)C3)cc2)CC1 (configuration not stated)	-30.9
COc1ccc(Nc2ncc(Br)c(NCCCNC(=O)c3cccs3)n2)cc1	59
O=S(=O)(Nc1ccc(Cl)c(C(F)(F)F)c1)c1ccc(-c2cnc(C3CC3)o2)cc1	2.82
COc1ccc2c(c1)c(-c1nc(-c3c[nH]c4ccncc34)cs1)cn2C	-92.3
CCOC(=O)c1c2c(n3cccc(F)c13)C(=O)c1ncccc1C2=O	13.1
CN1C(=O)/C(=C\c2c(Cl)cccc2Cl)c2ccccc21	7.16
COc1ccc(/C=C(\C#N)n2nnc3cc(Cl)ccc32)cc1	-61.6
CCCCCCC12CCC(=O)N1CCc1cncn12 (configuration not stated)	105
COc1ccc(-c2nc3cc(C(=O)NCc4ccccc4)ccc3n2C2CCCCC2)cc1	81.7
NC(=O)c1ccc(-c2c3ccccc3cc3c2ccc2ccccc23)cc1	0.545
N#CC1=C(N)Oc2c(c(=O)[nH]c3ccc(Cl)cc23)C12C(=O)c1ccccc1C2=O	92.6
COc1ccc2c(c1)CC[C@H](O)/C2=C/c1cc(OC)c(OC)c(OC)c1	-54.4
O=C1NC(=C(Cl)Cl)/C(=N\S(=O)(=O)NCc2ccccc2)N1	95.8
CC(C)(Sc1cc(C(C)(C)C)c(O)c(C(C)(C)C)c1)Sc1cc(C(C)(C)C)c(OC(=O)CCCC(=O)O)c(C(C)(C)C)c1	60.4
c1csc(-c2ccc(CNc3c4ccccc4nc4ccccc34)cc2)c1	-83.4
Cn1ccnc1C(=O)/C=C/c1ccc(CC(=O)Nc2cc(C(F)(F)F)cc(C(F)(F)F)c2)cc1	68.5
CCOC(=O)n1ccn(C)c1=S	102
O=C(NCc1ccc(Cl)cc1Cl)C1CCC(=O)N1c1cccs1 (configuration not stated)	97.2
CCOC(=O)C1=C(N)Oc2c(sc3c(F)cccc23)C1c1ccc(O)cc1 (configuration not stated)	5.63
